Values were extracted from PubChem BioAssay AID581.

target: Cathepsin G (Homo sapiens) (UniProt P08311); assay: human cathepsin G inhibitors, primary screen, biochemical, pooled compound mixtures, AMC fluorescence (AID 581); settings: purified enzyme, AMC-tetrapeptide fluorescence, stronger effect = higher value, screened at 5 µM (by protocol);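 also: 0% = enzyme control without mixture and 100% = blank lacking enzyme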
Sequence (P08311 21-244 limits assumed): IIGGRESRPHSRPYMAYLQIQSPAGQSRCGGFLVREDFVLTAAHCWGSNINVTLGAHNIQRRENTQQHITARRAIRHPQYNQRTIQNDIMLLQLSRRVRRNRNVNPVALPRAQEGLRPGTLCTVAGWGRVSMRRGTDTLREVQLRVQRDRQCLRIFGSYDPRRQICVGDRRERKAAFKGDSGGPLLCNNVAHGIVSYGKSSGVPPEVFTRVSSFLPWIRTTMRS
Screen size: about 62,000 compounds; about 95 (0.2%) were called active. For the sample, actives were picked, then their nearest neighbours and some compounds at random.
readout kind: inhibition (%)

> print(dat)
                                    compound  readout.kind  result.value
 1  O=C1Nc2c(Br)cc(Br)cc2C1(O)N1CCOCC1 (stereo unspecified)    inhibition          1.49
 2  O=C(Nc1ccc(S(=O)(=O)N2CCCC2)cc1Cl)C1=COCCO1    inhibition         -0.78
 3  CCOC(=O)C1CCCN(C(=O)c2ccc(CS(=O)(=O)c3ccc(Br)cc3)o2)C1 (stereo unspecified)    inhibition          7.41
 4  O=C(Cn1c(-c2ccc(Cl)cc2)noc1=O)N1CCN(c2ccccc2F)CC1    inhibition          7.96
 5  CCCCn1c(SCc2ncc(-c3ccccc3)o2)nc2cc(S(N)(=O)=O)ccc21    inhibition          13.9
 6  O=c1c2ccccc2[nH]c(=S)n1CCN1CCC(=C(c2ccc(F)cc2)c2ccc(F)cc2)CC1    inhibition          13.1
 7  O=C(O)CN1C(=O)CC(Cc2ccccc2)C1=O (stereo unspecified)    inhibition        -0.115
 8                 O=c1nc(N2CCOCC2)nc2n1CCO2    inhibition          1.08
 9  Cc1ccc(-n2c(N)c(C(=O)N3CCOCC3)sc2=S)c(C)c1    inhibition          11.4
10  COCCCN1C(=O)c2ccc(C(=O)Nc3ccc(OC)cc3OC)cc2C1=O    inhibition         -4.08
11  Cc1ccc(S(=O)(=O)N2CCN(Cc3cccc(C)c3O)CC2)cc1    inhibition          2.48
